target: MKNK1 (Homo sapiens, UniProt Q9BUB5); construct: purchased; assay: filter binding kinase assay; type: biochemical; conditions: derived from % inhibition at 1 μM
Sequence (Q9BUB5 whole entry, species assumed): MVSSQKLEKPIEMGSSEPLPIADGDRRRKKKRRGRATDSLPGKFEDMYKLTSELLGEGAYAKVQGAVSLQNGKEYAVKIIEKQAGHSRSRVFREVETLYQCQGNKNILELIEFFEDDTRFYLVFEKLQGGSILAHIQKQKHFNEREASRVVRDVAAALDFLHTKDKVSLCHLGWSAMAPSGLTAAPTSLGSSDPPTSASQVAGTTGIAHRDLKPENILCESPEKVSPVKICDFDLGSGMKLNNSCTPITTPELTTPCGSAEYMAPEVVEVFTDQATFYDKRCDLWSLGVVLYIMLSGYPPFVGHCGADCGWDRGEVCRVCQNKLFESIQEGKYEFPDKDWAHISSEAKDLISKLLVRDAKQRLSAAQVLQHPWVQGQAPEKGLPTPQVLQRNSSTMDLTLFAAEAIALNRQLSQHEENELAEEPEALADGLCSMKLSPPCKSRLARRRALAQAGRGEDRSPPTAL
pIC50: −log10 of the molar value.
List of pIC50 values.

Consider the reported pIC50 for these compounds:
{"compound": "Nc1ncsc1C#Cc1cnc2[nH]ccc2c1 [Compound A22]", "pIC50": "4.00 to 5.00"}
{"compound": "Nc1ncsc1C#Cc1cccc(O)c1 [Compound A27, 3-(4-aminothiazol-5-ylethynyl)phenol]", "pIC50": "4.00 to 5.00"}
{"compound": "CC(C)(C)OC(=O)Nc1ncsc1C#CCN1C(=O)c2ccccc2C1=O [Compound A26]", "pIC50": "< 6.00"}
{"compound": "c1ccc(Cc2c[nH]c3ncsc23)cc1 [Compound A7, 6-benzyl-4H-pyrrolo[2,3-d]thiazole]", "pIC50": "< 6.00"}

Shifting focus to the compound that follows.
Problem: MKNK1 (Homo sapiens, UniProt Q9BUB5) / pIC50 / CC(C)(C)OC(=O)Nc1nc(-c2ccncc2)sc1C#CCN1CCOCC1 [Compound A25] : value?
Solution: < 6.00

----------
IC50 tested on HIPK3 (Homo sapiens, UniProt Q9H422): recorded values
Sequence (Q9H422 whole entry, species assumed): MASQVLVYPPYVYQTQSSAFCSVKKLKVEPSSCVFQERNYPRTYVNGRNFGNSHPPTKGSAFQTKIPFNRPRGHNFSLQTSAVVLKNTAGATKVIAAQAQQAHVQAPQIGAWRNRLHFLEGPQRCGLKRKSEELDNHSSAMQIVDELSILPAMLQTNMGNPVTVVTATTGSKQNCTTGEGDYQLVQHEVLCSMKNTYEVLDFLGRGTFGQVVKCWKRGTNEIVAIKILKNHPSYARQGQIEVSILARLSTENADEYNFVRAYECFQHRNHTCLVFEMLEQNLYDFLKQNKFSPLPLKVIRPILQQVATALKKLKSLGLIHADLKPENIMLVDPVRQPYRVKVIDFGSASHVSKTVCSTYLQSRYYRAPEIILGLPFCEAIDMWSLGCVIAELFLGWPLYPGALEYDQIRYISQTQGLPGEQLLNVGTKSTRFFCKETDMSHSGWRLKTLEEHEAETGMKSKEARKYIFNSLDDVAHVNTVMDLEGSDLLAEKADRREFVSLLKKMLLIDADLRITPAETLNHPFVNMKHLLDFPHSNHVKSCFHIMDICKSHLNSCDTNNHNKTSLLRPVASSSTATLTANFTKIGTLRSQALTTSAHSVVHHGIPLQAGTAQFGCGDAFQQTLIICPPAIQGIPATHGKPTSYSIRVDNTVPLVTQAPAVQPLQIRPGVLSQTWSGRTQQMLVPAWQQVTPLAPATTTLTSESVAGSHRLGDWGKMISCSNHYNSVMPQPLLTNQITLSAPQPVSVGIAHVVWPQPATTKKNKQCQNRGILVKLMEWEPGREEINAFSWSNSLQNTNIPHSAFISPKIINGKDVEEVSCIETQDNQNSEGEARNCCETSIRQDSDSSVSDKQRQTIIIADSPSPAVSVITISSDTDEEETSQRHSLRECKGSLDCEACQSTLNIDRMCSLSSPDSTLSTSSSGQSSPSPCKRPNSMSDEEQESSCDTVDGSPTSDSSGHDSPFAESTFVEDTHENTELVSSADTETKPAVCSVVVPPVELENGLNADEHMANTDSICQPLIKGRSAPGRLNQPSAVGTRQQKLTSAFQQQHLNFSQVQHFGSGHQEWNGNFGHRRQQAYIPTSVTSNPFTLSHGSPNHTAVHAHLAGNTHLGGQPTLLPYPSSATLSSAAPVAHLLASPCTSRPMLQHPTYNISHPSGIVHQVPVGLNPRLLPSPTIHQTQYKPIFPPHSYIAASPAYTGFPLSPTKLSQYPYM

{"compound": "Nc1ncsc1C#Cc1cccc(O)c1 [Compound A27, 3-(4-aminothiazol-5-ylethynyl)phenol]", "experimental.target": "HIPK3 (Homo sapiens, UniProt Q9H422)", "recorded.value": "1 to 10 µM"}
{"compound": "c1ccc(Cc2c[nH]c3ncsc23)cc1 [Compound A7, 6-benzyl-4H-pyrrolo[2,3-d]thiazole]", "experimental.target": "HIPK3 (Homo sapiens, UniProt Q9H422)", "recorded.value": "1 to 10 µM"}
{"compound": "Nc1ncsc1C#Cc1cnc2[nH]ccc2c1 [Compound A22]", "experimental.target": "HIPK3 (Homo sapiens, UniProt Q9H422)", "recorded.value": "1 to 10 µM"}
{"compound": "CC(C)(C)OC(=O)Nc1ncsc1C#CCN1C(=O)c2ccccc2C1=O [Compound A26]", "experimental.target": "HIPK3 (Homo sapiens, UniProt Q9H422)", "recorded.value": "10 to 100 µM"}

Alright, here's another compound for you.
Problem: For the record CC(C)(C)OC(=O)Nc1nc(-c2ccncc2)sc1C#CCN1CCOCC1 [Compound A25] , what value of IC50 is listed for HIPK3 (Homo sapiens, UniProt Q9H422)?
Solution: 10 to 100 µM

----------
target: CSNK1D (Homo sapiens); construct: purchased; assay: filter binding kinase assay; type: biochemical; details: derived from % inhibition at 1 μM
Sequence (P48730 whole entry, species assumed): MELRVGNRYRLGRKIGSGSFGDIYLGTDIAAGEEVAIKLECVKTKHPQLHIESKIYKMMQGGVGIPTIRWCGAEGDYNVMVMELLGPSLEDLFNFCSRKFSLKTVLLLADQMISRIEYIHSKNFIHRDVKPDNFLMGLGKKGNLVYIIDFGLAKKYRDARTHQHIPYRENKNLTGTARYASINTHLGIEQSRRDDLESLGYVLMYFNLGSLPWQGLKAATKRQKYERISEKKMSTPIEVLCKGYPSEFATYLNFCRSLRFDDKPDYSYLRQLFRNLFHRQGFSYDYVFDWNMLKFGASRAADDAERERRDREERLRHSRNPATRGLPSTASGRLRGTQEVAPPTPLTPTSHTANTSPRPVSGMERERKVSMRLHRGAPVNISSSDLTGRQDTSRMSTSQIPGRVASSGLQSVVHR
pIC50: −log10 of the molar value.
Reported values of pIC50 for individual entries

{"compound": "Nc1ncsc1C#Cc1cnc2[nH]ccc2c1", "experimental.target": "CSNK1D (Homo sapiens)", "observed.property": "pIC50", "recorded.value": "4.00 to 5.00"}
{"compound": "c1ccc(Cc2c[nH]c3ncsc23)cc1 [Compound A7, 6-benzyl-4H-pyrrolo[2,3-d]thiazole]", "experimental.target": "CSNK1D (Homo sapiens)", "observed.property": "pIC50", "recorded.value": "5.00 to 6.00"}
{"compound": "CC(C)(C)OC(=O)Nc1ncsc1C#CCN1C(=O)c2ccccc2C1=O", "experimental.target": "CSNK1D (Homo sapiens)", "observed.property": "pIC50", "recorded.value": "< 6.00"}
{"compound": "CC(C)(C)OC(=O)Nc1nc(-c2ccncc2)sc1C#CCN1CCOCC1", "experimental.target": "CSNK1D (Homo sapiens)", "observed.property": "pIC50", "recorded.value": "< 6.00"}

# evaluate next
Problem: Reported pIC50, compound Nc1ncsc1C#Cc1cccc(O)c1 : ____
Solution: 5.00 to 6.00

----------
Quick note: these are IC50 numbers for system: MAPK8 (Homo sapiens)
Sequence (P45983 whole entry, species assumed): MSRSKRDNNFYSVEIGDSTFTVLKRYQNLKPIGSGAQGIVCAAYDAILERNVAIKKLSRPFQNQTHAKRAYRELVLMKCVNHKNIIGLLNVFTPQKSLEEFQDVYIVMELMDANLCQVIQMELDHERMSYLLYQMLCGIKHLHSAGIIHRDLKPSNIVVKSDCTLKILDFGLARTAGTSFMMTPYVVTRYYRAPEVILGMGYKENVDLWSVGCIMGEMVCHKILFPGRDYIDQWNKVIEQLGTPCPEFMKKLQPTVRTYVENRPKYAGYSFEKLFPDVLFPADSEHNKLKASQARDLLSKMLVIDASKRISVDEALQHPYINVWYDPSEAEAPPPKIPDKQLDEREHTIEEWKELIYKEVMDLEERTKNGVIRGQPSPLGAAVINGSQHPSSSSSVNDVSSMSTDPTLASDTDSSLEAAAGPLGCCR

{"molecule": "CC(C)(C)OC(=O)Nc1nc(-c2ccncc2)sc1C#CCN1CCOCC1 [Compound A25]", "experimental.target": "MAPK8 (Homo sapiens)", "IC50": "> 1 µM"}

Problem: Using the record for Nc1ncsc1C#Cc1cccc(O)c1 [Compound A27, 3-(4-aminothiazol-5-ylethynyl)phenol] , report its IC50.
Solution: 1 to 10 µM

Problem: Tell me the measured IC50 of CC(C)(C)OC(=O)Nc1ncsc1C#CCN1C(=O)c2ccccc2C1=O [Compound A26] , please.
Solution: 10 to 100 µM

Problem: GET /values?readout=IC50&item= c1ccc(Cc2c[nH]c3ncsc23)cc1 [Compound A7, 6-benzyl-4H-pyrrolo[2,3-d]thiazole]
Solution: 1 to 10 µM

----------
Let's go through some recorded IC50 values for CSK (Homo sapiens) together.

Example cases with answers are listed next.
{"molecule": "CC(C)(C)OC(=O)Nc1nc(-c2ccncc2)sc1C#CCN1CCOCC1", "IC50": "> 1 µM"}
{"molecule": "c1ccc(Cc2c[nH]c3ncsc23)cc1 [Compound A7, 6-benzyl-4H-pyrrolo[2,3-d]thiazole]", "IC50": "1 to 10 µM"}
{"molecule": "Nc1ncsc1C#Cc1cccc(O)c1", "IC50": "10 to 100 µM"}

Problem: Missing value: IC50, CSK (Homo sapiens), entry Nc1ncsc1C#Cc1cnc2[nH]ccc2c1 . Fill in?
Solution: 10 to 100 µM

Problem: Give the reported IC50 for CC(C)(C)OC(=O)Nc1ncsc1C#CCN1C(=O)c2ccccc2C1=O (system: CSK (Homo sapiens)).
Sequence (P41240 whole entry, species assumed): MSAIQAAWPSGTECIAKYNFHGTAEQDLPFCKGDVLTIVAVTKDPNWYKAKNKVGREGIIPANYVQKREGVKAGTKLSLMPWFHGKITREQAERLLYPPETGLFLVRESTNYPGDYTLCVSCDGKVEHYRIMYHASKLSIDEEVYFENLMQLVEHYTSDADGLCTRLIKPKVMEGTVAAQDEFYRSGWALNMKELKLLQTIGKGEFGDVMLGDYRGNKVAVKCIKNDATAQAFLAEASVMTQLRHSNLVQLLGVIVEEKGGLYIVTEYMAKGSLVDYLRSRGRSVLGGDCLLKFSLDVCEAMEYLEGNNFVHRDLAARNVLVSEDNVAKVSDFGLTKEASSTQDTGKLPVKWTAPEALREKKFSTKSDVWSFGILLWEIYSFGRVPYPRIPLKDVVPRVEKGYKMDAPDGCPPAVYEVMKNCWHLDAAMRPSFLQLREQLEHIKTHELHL
Solution: 10 to 100 µM

----------
target: UniProtKB Q96SB4
Sequence (Q96SB4 whole entry, species assumed): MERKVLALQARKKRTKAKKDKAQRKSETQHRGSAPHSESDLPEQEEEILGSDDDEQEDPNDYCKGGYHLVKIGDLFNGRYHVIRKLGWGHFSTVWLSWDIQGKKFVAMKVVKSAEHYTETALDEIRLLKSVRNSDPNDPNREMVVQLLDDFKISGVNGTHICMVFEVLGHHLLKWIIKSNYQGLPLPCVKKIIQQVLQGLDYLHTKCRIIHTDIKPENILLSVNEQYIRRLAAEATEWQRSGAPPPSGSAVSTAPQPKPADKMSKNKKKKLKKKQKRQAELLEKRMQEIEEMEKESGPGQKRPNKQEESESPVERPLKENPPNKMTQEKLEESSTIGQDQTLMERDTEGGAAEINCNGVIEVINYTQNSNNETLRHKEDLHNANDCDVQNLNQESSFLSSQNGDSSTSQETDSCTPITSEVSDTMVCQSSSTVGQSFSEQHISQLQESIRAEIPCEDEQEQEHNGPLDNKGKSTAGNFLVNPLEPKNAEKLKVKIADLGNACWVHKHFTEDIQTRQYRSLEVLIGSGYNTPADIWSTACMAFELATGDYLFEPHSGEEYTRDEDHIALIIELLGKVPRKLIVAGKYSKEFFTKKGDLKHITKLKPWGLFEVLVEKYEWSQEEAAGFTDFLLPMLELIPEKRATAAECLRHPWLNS
observed.property: IC50

Consider the worked cases shown below.
{"compound": "Nc1ncsc1C#Cc1cnc2[nH]ccc2c1", "observed.property": "IC50", "recorded.value": "> 1 µM"}
{"compound": "CC(C)(C)OC(=O)Nc1ncsc1C#CCN1C(=O)c2ccccc2C1=O", "observed.property": "IC50", "recorded.value": "> 1 µM"}
{"compound": "CC(C)(C)OC(=O)Nc1nc(-c2ccncc2)sc1C#CCN1CCOCC1", "observed.property": "IC50", "recorded.value": "> 1 µM"}

Problem: I am curious: what IC50 value has been reported for c1ccc(Cc2c[nH]c3ncsc23)cc1 [Compound A7, 6-benzyl-4H-pyrrolo[2,3-d]thiazole] ?
Solution: 10 to 100 µM

Problem: Any idea what its IC50 is? The compound is Nc1ncsc1C#Cc1cccc(O)c1
Solution: 1 to 10 µM

----------
molecular target: UniProtKB P31749
Sequence (P31749 whole entry, species assumed): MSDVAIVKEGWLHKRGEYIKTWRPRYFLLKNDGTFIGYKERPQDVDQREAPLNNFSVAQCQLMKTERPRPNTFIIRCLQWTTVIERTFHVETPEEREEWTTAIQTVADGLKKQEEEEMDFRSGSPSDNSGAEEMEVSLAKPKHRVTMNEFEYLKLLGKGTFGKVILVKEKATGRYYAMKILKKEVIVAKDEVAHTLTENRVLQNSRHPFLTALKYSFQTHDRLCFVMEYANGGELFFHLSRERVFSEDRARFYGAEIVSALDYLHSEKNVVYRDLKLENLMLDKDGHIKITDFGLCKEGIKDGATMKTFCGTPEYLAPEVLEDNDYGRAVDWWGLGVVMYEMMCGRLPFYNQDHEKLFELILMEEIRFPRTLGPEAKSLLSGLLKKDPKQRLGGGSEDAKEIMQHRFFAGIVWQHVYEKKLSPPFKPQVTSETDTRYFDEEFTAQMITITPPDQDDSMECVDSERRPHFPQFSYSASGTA
observed.property: IC50

{"compound": "Nc1ncsc1C#Cc1cnc2[nH]ccc2c1", "observed.property": "IC50", "recorded.value": "10 to 100 µM"}
{"compound": "CC(C)(C)OC(=O)Nc1nc(-c2ccncc2)sc1C#CCN1CCOCC1", "observed.property": "IC50", "recorded.value": "> 1 µM"}
{"compound": "c1ccc(Cc2c[nH]c3ncsc23)cc1 [Compound A7, 6-benzyl-4H-pyrrolo[2,3-d]thiazole]", "observed.property": "IC50", "recorded.value": "> 1 µM"}
{"compound": "Nc1ncsc1C#Cc1cccc(O)c1", "observed.property": "IC50", "recorded.value": "> 1 µM"}

From here, focus on the item given below.
Problem: Could you share what IC50 was measured for CC(C)(C)OC(=O)Nc1ncsc1C#CCN1C(=O)c2ccccc2C1=O , tested on UniProtKB P31749?
Solution: > 1 µM

----------
molecular target: IKBKB (Homo sapiens)
pIC50: −log10 of the molar value.
// values below are reported pIC50

Problem: Reported pIC50 for IKBKB (Homo sapiens), given Nc1ncsc1C#Cc1cnc2[nH]ccc2c1 [Compound A22] ?
Solution: 4.00 to 5.00

----------
Listed here: compounds with reported pIC50 for AURKA (Aurora A) (Homo sapiens, UniProt O14965).
pIC50: −log10 of the molar value.

{"compound": "Nc1ncsc1C#Cc1cnc2[nH]ccc2c1", "experimental.target": "AURKA (Aurora A) (Homo sapiens, UniProt O14965)", "pIC50": "6.00 to 8.00"}

Problem: What pIC50 appears in the records for this compound with AURKA (Aurora A) (Homo sapiens, UniProt O14965)? Nc1ncsc1C#Cc1cccc(O)c1
Sequence (O14965 whole entry, species assumed): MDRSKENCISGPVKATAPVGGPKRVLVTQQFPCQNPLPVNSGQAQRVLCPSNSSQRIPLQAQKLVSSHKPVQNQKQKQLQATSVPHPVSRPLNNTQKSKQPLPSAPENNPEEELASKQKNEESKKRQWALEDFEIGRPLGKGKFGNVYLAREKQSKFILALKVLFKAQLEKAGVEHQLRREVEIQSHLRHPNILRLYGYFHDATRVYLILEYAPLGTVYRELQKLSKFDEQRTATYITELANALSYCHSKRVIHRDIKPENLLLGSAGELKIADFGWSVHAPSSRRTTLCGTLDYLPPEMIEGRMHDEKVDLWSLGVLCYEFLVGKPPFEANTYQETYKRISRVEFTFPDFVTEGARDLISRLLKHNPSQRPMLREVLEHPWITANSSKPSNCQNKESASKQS
Solution: 5.00 to 6.00

Problem: What value of pIC50 on AURKA (Aurora A) (Homo sapiens, UniProt O14965) does c1ccc(Cc2c[nH]c3ncsc23)cc1 [Compound A7, 6-benzyl-4H-pyrrolo[2,3-d]thiazole] have?
Solution: 6.00 to 8.00

Problem: pIC50 of CC(C)(C)OC(=O)Nc1nc(-c2ccncc2)sc1C#CCN1CCOCC1 on AURKA (Aurora A) (Homo sapiens, UniProt O14965)?
Solution: < 6.00

Problem: Give recorded pIC50 with AURKA (Aurora A) (Homo sapiens, UniProt O14965) for the following compound: CC(C)(C)OC(=O)Nc1ncsc1C#CCN1C(=O)c2ccccc2C1=O
Solution: 5.00 to 6.00

----------
pIC50: −log10 of the molar value.
Observed pIC50 values for GSK3B (GSK3b) (Homo sapiens) are listed in what follows.

{"molecule": "c1ccc(Cc2c[nH]c3ncsc23)cc1 [Compound A7, 6-benzyl-4H-pyrrolo[2,3-d]thiazole]", "observed.property": "pIC50", "recorded.value": "5.00 to 6.00"}
{"molecule": "Nc1ncsc1C#Cc1cnc2[nH]ccc2c1", "observed.property": "pIC50", "recorded.value": "6.00 to 8.00"}
{"molecule": "CC(C)(C)OC(=O)Nc1ncsc1C#CCN1C(=O)c2ccccc2C1=O", "observed.property": "pIC50", "recorded.value": "5.00 to 6.00"}
{"molecule": "CC(C)(C)OC(=O)Nc1nc(-c2ccncc2)sc1C#CCN1CCOCC1", "observed.property": "pIC50", "recorded.value": "< 6.00"}

Problem: Record Nc1ncsc1C#Cc1cccc(O)c1 : what is its pIC50 with GSK3B (GSK3b) (Homo sapiens)?
Solution: 5.00 to 6.00

Source of measurements: patent US8703961B2
